Reference source: PubChem BioAssay (NCI)

System: A549 NSCLC
Experiment: NCI tumour cell line growth inhibition, 48 h
Listed here are molecules together with their documented GI50.

# compound-smiles, GI50
records = [
    ("Cc1cccc(Cc2cnc(NC(=O)CCCOc3ccc(Cl)cc3)s2)c1", "3.94 µM"),
    ("Oc1ccc(CCNc2nc3ccccc3c3[nH]c4ccccc4c23)cc1", "1.33 µM"),
    ("CN(C)C(=O)c1cc2cnc(Nc3ccc(N4CCNCC4)cn3)nc2n1C1CCCC1", "12 µM"),
    ("O=C(Nc1cccc(C(F)(F)F)c1)Nc1cc(S(=O)(=O)NC2CC2)ccc1-c1ccsc1", "3.68 µM"),
    ("N#Cc1c(N/N=C/c2c(Cl)cccc2Cl)nc(N)nc1N1CCCC1", "3.65 µM"),
    ("CCc1c[nH]c2ncnc(N3CC[C@](N)(CNC(=O)c4ccc(F)cc4F)C3)c12", "7.36 µM"),
    ("CCn1c(SC)nnc1-c1cc2c([nH]c3ccccc32)c(-c2cccc(O)c2)n1", "3.61 µM"),
    ("COc1cc(/C=C/C(=O)c2c(-c3ccc(Cl)cc3)nc3sc(C)nn23)cc(OC)c1OC", "49.5 µM"),
]

###

System: COLO 205 colon
Experiment: NCI tumour cell line growth inhibition, 48 h
Listed here are compounds together with their documented TGI.

# compound, display-unit, qualifier-symbol, TGI
data = [
    ("COc1ccc(Sc2ccccc2[N+](=O)[O-])cc1", "µM", "=", 29.7),
    ("CCOC(=O)c1sc2nc(SC)nc3c2c1NCN3c1ccccc1Cl", "µM", ">", 100),
    ("CC1CC2C(=O)N(c3ccccc3)C(=O)C2c2[nH]c3ccccc3c21 (stereo not drawn)", "µM", ">", 100),
    ("CC(C)c1nc(Cl)c(Cl)c(Cl)n1", "µM", "=", 11.9),
    ("NC(=O)NC(=O)C1CCC(=O)N1S(=O)(=O)c1ccc(Cl)cc1 (stereo not drawn)", "µM", ">", 100),
    ("O=C(COC(=O)[C@H](C[Se][Se]C[C@H](NC(=O)c1ccc(Br)cc1F)C(=O)OCC(=O)c1ccc(F)cc1)NC(=O)c1ccc(Br)cc1F)c1ccc(F)cc1", "µM", "=", 3.95),
    ("Cc1cc(N(CCCl)CCCl)ccc1/C=N\\NC(=O)c1cccnc1", "µM", "=", 85.3),
    ("COC(=O)C1CCC(=S)N1C(C)=O (stereo not drawn)", "µM", ">", 100),
]

###

Test system: HCT-15 colon
Assay: NCI tumour cell line growth inhibition, 48 h
Listed here are compounds together with their documented TGI.
value-kind: TGI

# compound, result
data = [
    ("CCN(CCCl)c1ccc(NC(=O)c2cc(C(=O)NCCN(C)C)cc(C(=O)Nc3ccc(N(CC)CCCl)cc3)c2)cc1", "> 100 µM"),
    ("COC(=O)CCSC(=O)Nc1ccccc1Cl", "> 100 µM"),
    ("O=C(C[N+]1(c2ccccc2)CCOCC1)c1ccccc1", "> 100 µM"),
    ("COc1ccc(/[N+]([O-])=C/c2ccccc2OC(=S)S)cc1", "> 100 µM"),
    ("Cc1cccc2c1Oc1ncccc1C2NC(=O)CN(C)C (stereo unspecified)", "> 10 µM"),
    ("CCc1nc2cc(F)ccc2[nH]c1=O", "> 100 µM"),
]

###

System: HL-60(TB) leukemia
Assay: NCI tumour cell line growth inhibition, 48 h; in the data active = GI50 below about 0.43 µM; inactive = the rest
Possible outcomes: yes for active, no for inactive

# compound, discrete-label
rows = [
    ("CC(C)=NO.CC(C)=NO.CC(C)=NO.CC(C)=NO.[Ti]", "no"),
    ("CC(=O)OC1CCC2(C)C(=CCC3C4CC(CN5CC5)C(=O)C4(C)CCC32)C1 (configuration not stated)", "no"),
    ("Cn1c(=O)c(Oc2ccc(F)cc2F)cc2cnc(NC3CCC(O)CC3)nc21 (configuration not stated)", "no"),
    ("Cn1c(=O)c(-c2c(Cl)cccc2Cl)cc2cnc(Nc3ccc(N4CCOCC4)cc3)nc21", "yes"),
    ("COC(=O)C(NC(=O)c1ccccc1)c1ccc(OC)c(I)c1 (configuration not stated)", "no"),
    ("Brc1ccc2c(c1)-c1ccccc1C1=NCCN12", "no"),
    ("CCc1c[nH]c2ncnc(N3CC[C@](N)(CNC(=O)c4ccc(F)cc4F)C3)c12", "no"),
]

###

Test system: UO-31 renal
Assay: NCI tumour cell line growth inhibition, 48 h
Listed here are compounds together with their documented TGI.

# compound, assay-target, TGI
data = [
    ("O=C(CCc1ccccc1)NCCc1ccc(O)c(O)c1", "UO-31 renal", "49.2 µM"),
    ("COC(=O)C1=C(C)C(=O)C2(CCCCCC2C(=O)OC)C1 (stereo not drawn)", "UO-31 renal", "> 100 µM"),
    ("OCCn1c(-c2ccncc2)c(-c2ccc(F)cc2)c2ncccc21", "UO-31 renal", "> 25 µM"),
    ("C(/Cc1ccc2c(c1)OCO2)=N\\NC1=NCCCCN1", "UO-31 renal", "> 100 µM"),
    ("O=[N+]([O-])c1cccc(C2=NOC3CCCC23)c1 (stereo not drawn)", "UO-31 renal", "> 100 µM"),
    ("O=C(Nc1ccccc1)Oc1ccccc1C1CCCCC1", "UO-31 renal", "74.3 µM"),
    ("Nc1nc(N)c(-c2ccccc2)c(C(=O)Nc2nccs2)n1", "UO-31 renal", "> 100 µM"),
    ("NNC(=O)COc1nc(-c2cccs2)nc2ccc(I)cc12", "UO-31 renal", "63.5 µM"),
    ("CCC(=C(c1ccc(OCCN(CC)CC)cc1)c1ccc(OCCN(CC)CC)cc1)c1ccc(Cl)cc1", "UO-31 renal", "0.94 µM"),
    ("Nc1nc2c(ccc3ccccc32)[nH]1", "UO-31 renal", "> 10 µM"),
    ("CC(C)=NO.CC(C)=NO.CC(C)=NO.CC(C)=NO.[Ti]", "UO-31 renal", "> 100 µM"),
    ("COc1ccc(S(=O)(=O)NCCCNc2nccc(-c3c(-c4ccc(F)cc4)nc4sccn34)n2)cc1", "UO-31 renal", "> 100 µM"),
    ("CCN(CC)CCCNc1nnc(C)c2[nH]c3ccccc3c12", "UO-31 renal", "> 100 µM"),
    ("C[C@@H](c1ccccc1)N(CC#N)[C@H]1CCC[C@]1(O)/C=C/c1ccc2c(c1)OCO2", "UO-31 renal", "> 25 µM"),
    ("CCOC(=O)c1c(SCCN(CC)CC)n(-c2ccccc2)c(=S)n(-c2ccccc2)c1=O", "UO-31 renal", "3.12 µM"),
    ("Cc1[nH]n(C(=O)c2ccc(Cl)cc2)c(=O)c1/C=C1\\C(O)=CC(=O)c2ccccc21", "UO-31 renal", "> 100 µM"),
    ("COc1cc(CC2C(=O)OCC2Cc2ccc(OC)c(OC)c2)ccc1O (stereo not drawn)", "UO-31 renal", "> 100 µM"),
    ("CC(=O)Nc1ccc(C(=O)NN2C(=O)CSC2c2ccccc2)cc1 (stereo not drawn)", "UO-31 renal", "> 100 µM"),
    ("Cc1cccc2c1Oc1ncccc1C2NC(=O)CN(C)C (stereo not drawn)", "UO-31 renal", "> 10 µM"),
    ("CCOC(=O)C1(NC(=O)OC(C)(C)C)CCc2[nH]oc(=O)c2C1 (stereo not drawn)", "UO-31 renal", "> 100 µM"),
    ("CO/C(N)=C(\\C#N)N=Cc1cccs1", "UO-31 renal", "> 100 µM"),
    ("CS(=O)(=O)Nc1ccc(Nc2c3ccccc3nc3cc(Cl)ccc23)cc1", "UO-31 renal", "8.96 µM"),
    ("Cn1ncc2c(c1=O)Nc1ccccc1S2(=O)=O", "UO-31 renal", "> 100 µM"),
]

###

System: UACC-257 melanoma
Experiment: NCI tumour cell line growth inhibition, 48 h; in the data active = GI50 below about 0.43 µM; inactive = the rest
Possible outcomes: T = active, F = inactive

# compound, discrete-label
measured = [
    ("C/C(=N\\NC(=O)c1ccncc1)c1ccccc1O", "F"),
    ("OCCn1c(-c2ccncc2)c(-c2ccc(F)cc2)c2ncccc21", "F"),
    ("Cc1cc(C2(c3cc(C)c(O)c4ncccc34)OC(=O)c3ccccc32)c2cccnc2c1O", "F"),
    ("CCNc1nc(-c2ccc(Cl)c(OC)c2)c(-c2ccnc(NCCNS(=O)(=O)c3ccc(Cl)cc3)n2)s1", "F"),
    ("CN(C)C(=O)c1cc2cnc(Nc3ccc(N4CCNCC4)cn3)nc2n1C1CCCC1", "F"),
    ("O=C(/C=C/N1CCN(c2cccc(Cl)c2)CC1)c1ccc(Cl)cc1", "F"),
    ("CN1CCN(Cc2ccc(NC(=O)c3cncc(C#Cc4cnc5cccnn45)c3)cc2C(F)(F)F)CC1", "F"),
    ("ClCc1ccc(Cn2cnc3nc(Cl)nc(Cl)c32)cc1", "F"),
    ("c1csc(-c2[nH]nc3c2CCc2ccccc2-3)c1", "F"),
    ("COC1=C(C)C(=O)C2=C(C1=O)C1C3CC4=C(C(=O)C(OC)=C(C)C4=O)C(CNC(=O)C(C)=O)N3C(C#N)C(C2)N1C (stereo not given)", "T"),
]
